Protein target, amino acids: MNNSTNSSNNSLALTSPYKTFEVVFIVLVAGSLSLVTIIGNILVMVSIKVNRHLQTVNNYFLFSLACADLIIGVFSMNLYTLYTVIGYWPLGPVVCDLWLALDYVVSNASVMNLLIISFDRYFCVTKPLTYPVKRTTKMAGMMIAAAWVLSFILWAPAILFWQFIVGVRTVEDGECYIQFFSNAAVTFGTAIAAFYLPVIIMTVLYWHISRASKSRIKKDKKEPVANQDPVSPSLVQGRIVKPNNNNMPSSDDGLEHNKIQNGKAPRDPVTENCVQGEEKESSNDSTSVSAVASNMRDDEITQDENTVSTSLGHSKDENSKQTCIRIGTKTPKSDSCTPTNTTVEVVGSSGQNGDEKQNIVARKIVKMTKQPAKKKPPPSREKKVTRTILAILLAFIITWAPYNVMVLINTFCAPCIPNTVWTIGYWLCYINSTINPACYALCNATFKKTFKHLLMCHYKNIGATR
pKi: −log10 of the molar value.
We begin with pKi values for the protein given by its sequence, as collected from the published literature.
Parameter: pKi

Worked set:
INSERT INTO assay_data (compound, recorded_number) VALUES
  ('FC(F)(F)c1cc(Oc2nccc3occc23)ccc1-c1cccc2nccn12', 5.09),
  ('C=C(c1ccc(S(=O)(=O)c2ccc(OC)cc2)cc1)C1CCN(C2CCNCC2)CC1', 8.94),
  ('CN1/C(=C/C=C/C=C/C2=[N+](CCCCCC(=O)NCCCCCCN3CCC(OC(=O)Nc4ccc(F)cc4-c4ccc(F)c(Cl)c4)CC3)c3ccccc3C2(C)C)C(C)(C)c2ccccc21', 8.23),
  ('CC(C1=C(CCN2CCOCC2)Cc2ccccc21)c1ccccn1 (configuration not stated)', 5.84),
  ('COc1ccc([S+]([O-])c2ccc(C(C(N)=O)N3CCN(C4CCCCC4)CC3)cc2)cc1 (configuration not stated)', 7.40);

[1] C[C@@H]1OC(=O)[C@H]2C[C@H]3CCCC[C@@H]3/C(=C/CC3CCC(C)(C)N3C)[C@@H]12 (some centres not stated)
[2] O=C(c1cccc2ccccc12)N1CCC(N2CCC(Oc3ccc(S(=O)(=O)c4ccc5c(c4)OCO5)cc3)CC2)CC1
Which of the two gives a bigger number for pKi: 1 or 2 ? State the label of the item chosen. 2

[a] O=C1CCc2ccccc2N1CCCN1CCC(CCCCCCCO)CC1
[b] O=C1CCc2ccccc2N1CCCN1CCN(CCc2ccccc2)CC1
Which of the two gives a bigger number for pKi: a or b ? State the label of the item chosen. a
(a: 6.68, b: 5.75)

###

We begin with Ki values for Muscarinic acetylcholine receptor M2 (Homo sapiens, UniProt P08172), as collected from the published literature.
Biological target: Muscarinic acetylcholine receptor M2 (Homo sapiens, UniProt P08172)
Sequence (P08172 whole entry): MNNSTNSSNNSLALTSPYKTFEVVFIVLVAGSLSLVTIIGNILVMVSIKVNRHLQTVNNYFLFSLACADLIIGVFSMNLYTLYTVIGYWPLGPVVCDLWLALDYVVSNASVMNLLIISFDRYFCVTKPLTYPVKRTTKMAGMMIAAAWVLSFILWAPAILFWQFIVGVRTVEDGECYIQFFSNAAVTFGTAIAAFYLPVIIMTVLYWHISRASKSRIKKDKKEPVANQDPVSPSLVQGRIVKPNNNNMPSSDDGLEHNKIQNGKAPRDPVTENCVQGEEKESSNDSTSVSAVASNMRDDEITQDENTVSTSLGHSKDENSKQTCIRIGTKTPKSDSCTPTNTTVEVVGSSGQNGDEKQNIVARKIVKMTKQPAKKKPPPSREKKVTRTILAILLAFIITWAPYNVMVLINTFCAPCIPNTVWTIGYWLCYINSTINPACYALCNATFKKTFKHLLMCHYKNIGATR
Parameter: Ki (nM)

[A] CN1CCC[C@@H]1[C@@H]1C[S+]([O-])[C@](c2ccccc2)(C2CCCCC2)O1 (stereo in doubt; (-)-6)
[B] CC(C)NC(=O)c1ccc(CC2CCN(C3CCN(C(=O)c4ccccc4Cl)CC3)CC2)cc1
[C] CC(C1=C(CCN(C(C)C)C(C)C)Cc2ccccc21)c1ccccn1 (stereo in doubt; (-)-19)
[D] C=C(c1ccc(S(=O)(=O)c2ccc(OC)cc2)cc1)C1CCN(C2CCN(S(=O)(=O)c3ccccc3)CC2)CC1
[E] COc1c(S(=O)(=O)c2ccc([C@H](C)N3CCN(C4CCN(C(=O)c5ccccc5C)CC4)C[C@H]3C)cc2)ccc2c1OCO2
Hi! Can you put these in order of Ki, lowest number first? Please list each label once, in the requested order. D, E, B, C, A

[P] Cc1ccccc1C(=O)N1CCC(N2CCC(Cc3ccc(C(=O)Nc4ccccc4)cc3)CC2)CC1
[Q] O=C(CN1CCCc2ccccc21)N1CCCCC1
# min-compare on Ki between P and Q State the label of the item chosen. P
(P: 122 nM, Q: 417 nM)

[1] CCC(C1=C(CCN(C)C)Cc2cc(Cl)ccc21)c1ccccn1 (configuration not stated)
[2] COC1CN(C(=O)CCN2CCCc3ccccc32)C1
# min-compare on Ki between 1 and 2 State the label of the item chosen. 1
